Hi there, I'd appreciate the recorded AUC(0-t) for every entry that follows.
# test_description: in vivo pharmacokinetic experiment in mice
# Parameters: species or system ICR mice
# measurement_context: male, ICR, mouse; oral intragastric administration 10 mg/kg, single, plasma

Report AUC(0-t) for C[C@H]1C[C@H]2[C@H](CC[C@@H]3[C@@H]2CC[C@]2(C)[C@@H](C(=O)Cn4cc(C#N)cn4)CC[C@@H]32)C[C@]1(C)O [Example 19] 26700 ng·h/mL

Report AUC(0-t) for C[C@@]1(O)CC[C@H]2[C@H](CC[C@@H]3[C@@H]2CC[C@]2(C)[C@@H](C(=O)Cn4cc(C#N)cn4)CC[C@@H]32)C1 [Sage-217, reference compound] 9160 ng·h/mL

Report AUC(0-t) for C[C@H]1C[C@H]2[C@H](CC[C@@H]3[C@@H]2CC[C@]2(C)[C@@H](C(=O)Cn4ncnn4)CC[C@@H]32)C[C@]1(C)O [Example 20] 32200 ng·h/mL

Report AUC(0-t) for C[C@@H]1C[C@H](C(=O)Cn2ncnn2)[C@@]2(C)CC[C@H]3[C@@H](CC[C@@H]4C[C@](C)(O)[C@@H](C)C[C@@H]43)[C@H]12 [Example 9] 23600 ng·h/mL
